Target or system: PDE 7 (phosphodiesterase VII) (Homo sapiens, UniProt Q13946)
Construct: endogenous in cells
Sequence (Q13946 whole entry): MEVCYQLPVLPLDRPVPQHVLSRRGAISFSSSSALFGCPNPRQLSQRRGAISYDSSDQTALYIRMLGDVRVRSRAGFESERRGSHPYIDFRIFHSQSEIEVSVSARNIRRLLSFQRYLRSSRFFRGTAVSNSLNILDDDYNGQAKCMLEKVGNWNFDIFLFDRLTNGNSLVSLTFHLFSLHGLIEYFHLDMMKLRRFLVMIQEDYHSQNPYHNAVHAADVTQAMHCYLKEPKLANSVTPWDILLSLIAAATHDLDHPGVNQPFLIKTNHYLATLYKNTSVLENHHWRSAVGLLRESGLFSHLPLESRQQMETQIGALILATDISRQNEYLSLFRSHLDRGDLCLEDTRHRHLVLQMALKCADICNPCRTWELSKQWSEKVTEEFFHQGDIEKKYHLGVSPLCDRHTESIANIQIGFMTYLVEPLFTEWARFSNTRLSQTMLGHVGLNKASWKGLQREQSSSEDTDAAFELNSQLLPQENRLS
Assay method text: PDE 7 inhibiting effect (Biological Test 1; 3H-cAMP hydrolysis by PDE 7 active fraction from MOLT-4 cells)
Conditions used: PDE 7 fraction from MOLT-4 cells; 0.064 μM cAMP, 10 μM rolipram present, 2 hours at 25° C.; read-out: PDE 7 inhibiting activities, IC50
Quantity: pIC50
Interpret pIC50 as the negative base-10 log of the concentration measured in mol/L.

## Input Supply measured pIC50 of COc1cc(N2CCN(C)CC2)ccc1-c1nc2c(C)nc(C3CCCCC3)n2c(=O)[nH]1 [Compound 11] in your reply.
## Output 7.26

## Input Complete the entry with pIC50 for COc1ccccc1-c1nc2c(C)nc(C3CCCCC3)n2c(=O)[nH]1 [Compound 8]
## Output 6.47

## Input Answer with the recorded pIC50 of COc1ccccc1-c1nn2c(C)nc(C3CCCCC3)c2c(=O)[nH]1 [Compound 12] only.
## Output 6.31
